- assay notes: Displacement of [3H]naltrindole from human delta opioid receptors expressed in CHO cell membrane
# maps each entry to its Ki
Field: numeric (nM). Do not append units.

                              record_smiles  reading
0  Oc1ccc2c(c1)[C@@]13CCCC[C@H]1[C@@H](C2)N(CC1CCC1)CC3      5.9

Continue with the compound presented below.
Prompt: Quick one: Ki for "Oc1ccc2c(c1)[C@@]13CCCC[C@H]1[C@@H](C2)N(CC1CC1)CC3" ?
Completion: 1.9

###

- measured on: Opioid receptors; delta & kappa (Homo sapiens) (UniProt P41145+P41143)
- Sequence (P41143 whole entry, looked up): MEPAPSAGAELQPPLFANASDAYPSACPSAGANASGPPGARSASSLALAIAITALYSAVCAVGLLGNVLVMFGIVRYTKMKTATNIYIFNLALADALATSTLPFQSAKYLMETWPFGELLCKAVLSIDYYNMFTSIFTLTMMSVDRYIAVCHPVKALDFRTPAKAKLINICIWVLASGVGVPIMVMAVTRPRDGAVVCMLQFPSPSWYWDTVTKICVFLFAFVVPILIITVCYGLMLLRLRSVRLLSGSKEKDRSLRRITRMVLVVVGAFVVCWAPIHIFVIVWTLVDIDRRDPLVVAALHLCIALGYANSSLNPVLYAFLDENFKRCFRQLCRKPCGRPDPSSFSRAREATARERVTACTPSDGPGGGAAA
- Sequence (P41145 whole entry, looked up): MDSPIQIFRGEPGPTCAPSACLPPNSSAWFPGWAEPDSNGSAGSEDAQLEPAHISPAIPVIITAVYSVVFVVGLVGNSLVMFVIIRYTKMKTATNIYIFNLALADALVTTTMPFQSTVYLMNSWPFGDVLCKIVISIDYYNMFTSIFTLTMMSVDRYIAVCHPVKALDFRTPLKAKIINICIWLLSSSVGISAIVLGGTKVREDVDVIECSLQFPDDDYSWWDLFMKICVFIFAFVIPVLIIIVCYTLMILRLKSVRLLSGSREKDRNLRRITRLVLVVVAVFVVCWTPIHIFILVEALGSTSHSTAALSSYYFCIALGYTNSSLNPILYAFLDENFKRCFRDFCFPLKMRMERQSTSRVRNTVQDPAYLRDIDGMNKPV
- assay notes: Selectivity for kappa opioid receptor over delta opioid receptor
- Format: protein assay
# maps each entry to its Ratio Ki
Reply with just the number.

Guide cases for Ratio Ki, answers given:
>>> df
                                   compound  quantity_measured  reading
0  O=C(Nc1ccccc1)Oc1ccc2c(c1)C13CCCCC1C(C2)N(CC1CC1)CC3 (stereo not given)           Ratio Ki       35
1  CNC(=O)Oc1ccc2c(c1)C13CCCCC1C(C2)N(CC1CC1)CC3 (single isomer, unassigned; (-))           Ratio Ki       12
2  CCNC(=O)Oc1ccc2c(c1)C13CCCCC1C(C2)N(CC1CC1)CC3 (single isomer, unassigned; (-))           Ratio Ki       20
3  O=C(NCc1ccccc1)Oc1ccc2c(c1)C13CCCCC1C(C2)N(CC1CCC1)CC3 (single isomer, unassigned; (-))           Ratio Ki       50
4  CNC(=O)Oc1ccc2c(c1)C13CCCCC1C(C2)N(CC1CCC1)CC3 (single isomer, unassigned; (-))           Ratio Ki       37

Continue with the compound presented below.
Prompt: Quick one: Ratio Ki for CCNC(=O)Oc1ccc2c(c1)C13CCCCC1C(C2)N(C)CC3 (stereo not given) ?
Completion: 2

Source of measurements: ChEMBL document CHEMBL1144610
